// reported pIC50 per item
- Test system: BXPC-3
- Protocol Text: Anti-proliferative activity against human BXPC-3 cells assessed as cell growth inhibition incubated for 72 hrs by MTS assay
- Assay type: functional, cell-based
- Test Context: BXPC-3, 72 h
Lab note — pIC50 values are minus log10 of concentrations in M.

Solved entries (count: 5):
{"columns": ["Chemical String", "pIC50"],
 "data": [
  ["COc1ccc(-c2noc(-c3cnc(Oc4ccc5cc(C(=O)N6CCN(Cc7ccc(OCC(F)(F)F)cc7)CC6)n(C)c5c4)cn3)n2)cc1", 9.40],
  ["Cn1c(C(=O)N2CCN(Cc3ccc(OCC(F)(F)F)cc3)CC2)cc2ccc(Oc3cnc(-c4nc(-c5ccc(F)cc5)no4)cn3)cc21", 8.85],
  ["Cn1c(C(=O)N2CCN(Cc3ccc(OCC(F)(F)F)cc3)CC2)cc2ccc(Oc3cnc(-c4nc(-c5cccc(F)c5)no4)cn3)cc21", 8.72],
  ["COc1ccccc1-c1noc(-c2cnc(Oc3ccc4cc(C(=O)N5CCN(Cc6ccc(OCC(F)(F)F)cc6)CC5)n(C)c4c3)cn2)n1", 8.89],
  ["Cn1c(C(=O)N2CCN(Cc3ccc(OCC(F)(F)F)cc3)CC2)cc2ccc(Oc3cnc(-c4nc(-c5ccc(OC(F)(F)F)cc5)no4)cn3)cc21", 7.94]
]}

Q: I am curious: what pIC50 value has been reported for CC(=O)c1cc2c(o1)C(=O)c1ccccc1C2=O ?
A: 5.28

Q: What would you report for Cn1c(C(=O)N2CCN(Cc3ccc(OCC(F)(F)F)cc3)CC2)cc2ccc(Oc3cnc(-c4nc(-c5ccccc5F)no4)cn3)cc21 ?
A: 8.77

Q: What would you report for Cn1c(C(=O)N2CCN(Cc3ccc(OCC(F)(F)F)cc3)CC2)cc2ccc(Oc3cnc(-c4nc(-c5ccc(C(F)(F)F)cc5)no4)cn3)cc21 ?
A: 8.48

Q: What would you report for CCN1CCN(C(=O)c2cc3ccc(Oc4cnc(-c5nc(-c6ccc(C(F)(F)F)cc6)no5)cn4)cc3n2C)CC1 ?
A: 8.72
